Test target: ZAP70 (human)
Experiment description: radiometric filter-binding kinase assay, Kinase HotSpot
Study conditions: compound 0.5 µM; ATP 10 µM
Reported property: residual activity (%)

>>> recorded_measurement("O=C1Nc2ccccc2/C1=C\\c1c(Cl)[nH]c2ccccc12")
106
>>> recorded_measurement("O=C(Nc1ccc(Cl)cc1)c1ccccc1NCc1ccncc1")
103
>>> recorded_measurement("CC(C)n1cnc2c(Nc3cccc(Cl)c3)nc(NCCO)nc21")
98.3
>>> recorded_measurement("CSc1nc(-c2ccc(F)cc2)c(-c2ccnc(NC(C)c3ccccc3)c2)[nH]1 (configuration not stated)")
102
>>> recorded_measurement("O=C(NC(NC(=S)Nc1ccc(F)c([N+](=O)[O-])c1)C(Cl)(Cl)Cl)C(c1ccccc1)c1ccccc1 (configuration not stated)")
94.2
>>> recorded_measurement("O=C1Cc2c([nH]c3ccc([N+](=O)[O-])cc23)-c2ccccc2N1")
91.4
>>> recorded_measurement("CCCNC(=O)Nc1ccc(Oc2ncnc3cc(OC)c(OC)cc23)cc1Cl")
102
>>> recorded_measurement("CS(=O)c1ccc(-c2nc(-c3ccc(F)cc3)c(-c3ccncc3)[nH]2)cc1 (configuration not stated)")
94.4
>>> recorded_measurement("COc1ccc(-c2cnc3c(-c4ccsc4)cnn3c2)cc1")
93.7
>>> recorded_measurement("O=c1cc(-c2cccc3c2Sc2ccccc2S3)oc(N2CCOCC2)c1")
97.1
>>> recorded_measurement("CC(C)(C)c1nc2c3ccc(F)cc3c3c(=O)[nH]ccc3c2[nH]1")
88.9
>>> recorded_measurement("Nc1n[nH]c2nnc(-c3c(-c4ccccc4)nn4ccccc34)cc12")
90.1
>>> recorded_measurement("O=c1cc(N2CCNCC2)oc2c(-c3ccccc3)cccc12")
102
>>> recorded_measurement("NC(=O)c1ccc(N(C(N)=O)c2c(F)cccc2F)nc1-c1ccc(F)cc1F")
100
>>> recorded_measurement("C#Cc1cccc(Nc2ncnc3cc(OCCOC)c(OCCOC)cc23)c1")
94.4
>>> recorded_measurement("Clc1ccc(Nc2nnc(Cc3ccncc3)c3ccccc23)cc1")
96.6
>>> recorded_measurement("Cc1ccc(NC(=O)c2ccc(CN3CCN(C)CC3)cc2)cc1Nc1nc(-c2cccnc2)cs1")
112
>>> recorded_measurement("COc1cc2nccc(Oc3ccc(NC(=S)NC(=O)c4ccccc4C)cc3)c2cc1OC")
97
>>> recorded_measurement("Nc1nc(Nc2ccc(S(N)(=O)=O)cc2)nn1C(=O)c1c(F)cccc1F")
94.8
>>> recorded_measurement("Oc1ccc(-c2nc(-c3ccc(F)cc3)c(-c3ccncc3)[nH]2)cc1")
100
>>> recorded_measurement("Cc1cc2ncc(-c3ccccc3)nc2cc1C")
96.7
>>> recorded_measurement("CC(C)[C@H](CO)Nc1nc(Nc2cccc(Cl)c2)c2ncn(C(C)C)c2n1")
99.7
